tested on: LOX human melanoma cells; assay: Tumor cell invasion through collagen/fibronectin coated membranes; format: cell-based; conditions: Homo sapiens; 5 hours; read-out: Invasion IC50
Parameter IC50: see the listing below.
result.type: IC50

> print(dat)
                                   compound  result.type  recorded.value
1  CN1C2CCC1C1C(=C(c3ccc(Cl)cc3)c3ccccc31)C2 (stereo not shown)         IC50          660 nM
2  CSc1ccc(C2=C3CC4CCC(C3c3ccccc32)N4C)cc1 (stereo not shown)         IC50          520 nM
3  COc1ccc(C2=C3CC4CCC(N4)C3c3ccccc32)cc1 (stereo not shown)         IC50        < 400 nM
4  Cc1ccc(C2=C3CC4CCC(C3c3ccccc32)N4C)cc1 (stereo not shown)         IC50          480 nM

Values were extracted from patent US5461057A.
